Reference source for all entries: patent US20260334439A1

Below, each entry is listed with its recorded IC50.
Biological target: UniProt O15382
Experiment: BCAT2 in vitro enzyme inhibition assay (hBCAT2, glutamate dehydrogenase/diaphorase/resazurin coupled fluorescence read)
Assay type: biochemical
Conditions: hBCAT2, 1 h preincubation at 25° C., one hour reaction; average where tested multiple times

Some solved cases for reference:
| Structure string | IC50 |
| --- | --- |
| O=C(N[C@H]1CCC[C@@H](n2c(-c3ccccc3F)nc3cnc(-c4nc[nH]n4)cc32)C1)c1cc(F)ccn1 | < 0.1 µM |
| O=C(N[C@H]1CCC[C@@H](n2c(-c3ncccc3F)nc3ccc(-c4nc[nH]n4)cc32)[C@@H]1O)c1cc(F)ccc1F | 0.1 to 0.5 µM |
| CO[C@H]1C[C@H](NC(=O)c2cc(Cl)ccn2)C[C@H](n2c(-c3ccccc3F)nc3cnc(-c4nc[nH]n4)cc32)C1 | < 0.1 µM |
| COc1ccc(Cl)cc1C(=O)N[C@H]1CCC[C@@H](n2c(-c3ccccc3F)nc3cnc(-c4nc[nH]n4)cc32)[C@@H]1O | < 0.1 µM |

Please give the documented IC50 of `CN1C[C@@H](N2Cc3ccc(F)cc3C2=O)C[C@@H](n2c(-c3ccccc3OCCO)nc3cnc(-c4nc[nH]n4)cc32)C1`
0.1 to 0.5 µM

Please give the documented IC50 of `CC(C)OCc1nc2cnc(-c3nc[nH]n3)cc2n1[C@@H]1CCC[C@H](NC(=O)c2cc(Cl)ccn2)C1`
> 1 µM

Please give the documented IC50 of `CO[C@H]1C[C@H](NC(=O)c2cc(F)ccn2)C[C@H](n2c(-c3ccccc3OCCO)nc3ccc(-c4ncccn4)cc32)C1`
< 0.1 µM

* * *

Molecular target: UniProt O15382
Assay: BCAT2 cell inhibition using engineered A549 cells (MUT KO, BCAT1 KO; 13C6-KMV formation by LC-MS/MS)
Assay type: cell-based
Parameters: expressed endogenous BCAT2; endogenous in cells; host or cells: A549 cells, MUT knockout and BCAT1 knockout
Below, each entry is listed with its recorded IC50.

| Structure string | Val |
| --- | --- |
| O=C(N[C@H]1CCC[C@@H](n2c(-c3ccccc3F)nc3cnc(-c4nc[nH]n4)cc32)C1)c1ccc(F)cn1 | 100 to 500 nM |

Please give the documented IC50 of `CC(C)(O)COc1ccc(Cl)cc1C(=O)N[C@H]1CCC[C@@H](n2c(-c3ccccc3F)nc3cnc(-n4nccn4)cc32)C1`
< 100 nM

Please give the documented IC50 of `O=C1c2cc(Cl)ccc2NCN1[C@H]1CCC[C@@H](n2c(-c3ccccc3F)nc3cnc(-c4nc[nH]n4)cc32)C1`
< 100 nM

Please give the documented IC50 of `CCOc1ccc(Cl)cc1C(=O)N[C@H]1CCC[C@@H](n2c(-c3ccccc3F)nc3cnc(-c4nc[nH]n4)cc32)C1`
< 100 nM

Please give the documented IC50 of `O=C1c2cccc(F)c2CN1[C@H]1CCC[C@@H](n2c(-c3ccccc3F)nc3cnc(-c4nc[nH]n4)cc32)C1`
100 to 500 nM

Please give the documented IC50 of `O=C(N[C@H]1CCC[C@@H](n2c(-c3ccccc3F)nc3cnc(-c4nc[nH]n4)cc32)C1)c1cc(Cl)ccc1OCCCO`
< 100 nM

Please give the documented IC50 of `O=C1c2cc(Cl)ccc2OCN1[C@H]1CCC[C@@H](n2c(-c3ccccc3F)nc3cnc(-c4nc[nH]n4)cc32)C1`
< 100 nM

* * *

Below, each entry is listed with its recorded pIC50.
Target: BCAT2 (Homo sapiens, UniProt O15382)
Sequence (O15382 28-392): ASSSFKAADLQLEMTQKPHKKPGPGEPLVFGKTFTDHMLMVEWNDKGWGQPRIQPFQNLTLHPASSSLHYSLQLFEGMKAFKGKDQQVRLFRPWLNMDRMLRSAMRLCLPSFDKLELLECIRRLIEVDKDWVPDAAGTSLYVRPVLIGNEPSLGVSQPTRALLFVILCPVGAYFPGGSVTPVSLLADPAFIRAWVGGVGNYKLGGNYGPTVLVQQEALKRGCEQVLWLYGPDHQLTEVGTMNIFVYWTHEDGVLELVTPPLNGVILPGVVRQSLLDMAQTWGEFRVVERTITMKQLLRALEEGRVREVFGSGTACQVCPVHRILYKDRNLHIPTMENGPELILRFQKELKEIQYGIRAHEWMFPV
Experiment: BCAT2 in vitro enzyme inhibition assay (hBCAT2, glutamate dehydrogenase/diaphorase/resazurin coupled fluorescence read)
Format: biochemical
Settings: hBCAT2, 1 h preincubation at 25° C., one hour reaction; average where tested multiple times
pIC50: −log10 of the molar value.

Some solved cases for reference:
| Compound | pIC50 |
| --- | --- |
| CC(C)Cc1nc2cnc(-c3nc[nH]n3)cc2n1[C@@H]1CCC[C@H](NC(=O)c2cc(Cl)ccc2OCCO)C1 | > 7.00 |
| CN1C[C@H](NC(=O)c2cc(F)ccc2F)C[C@H](n2c(-c3ccccc3OCCO)nc3cnc(-n4nccn4)cc32)C1 | > 7.00 |
| CC(C)Cc1nc2cnc(-n3nccn3)cc2n1[C@@H]1CCC[C@H](NC(=O)c2cc(Cl)ccc2OCCO)C1 | > 7.00 |

Please respond with reported pIC50 (system BCAT2 (Homo sapiens, UniProt O15382)) for `O=C1c2cc(Cl)ccc2OCCN1[C@H]1CCC[C@@H](n2c(-c3ccccc3F)nc3cnc(-c4nc[nH]n4)cc32)C1` .
< 6.00

Please respond with reported pIC50 (system BCAT2 (Homo sapiens, UniProt O15382)) for `CN1C[C@H](NC(=O)c2cc(Cl)ccn2)C[C@H](n2c(-c3ccccc3OCCO)nc3cnc(-c4ncccn4)cc32)C1` .
> 7.00

Please respond with reported pIC50 (system BCAT2 (Homo sapiens, UniProt O15382)) for `O=C(N[C@H]1CCC[C@@H](n2c(-c3c(O)cccc3F)nc3cnc(-c4nc[nH]n4)cc32)C1)c1cc(Cl)ccn1` .
> 7.00

Please respond with reported pIC50 (system BCAT2 (Homo sapiens, UniProt O15382)) for `COc1ccc(Cl)cc1C(=O)N[C@H]1C[C@H](O)C[C@@H](n2c(CC(C)C)nc3cnc(-c4ncccn4)cc32)C1` .
> 7.00

* * *

Molecular target: BCAT2 (Homo sapiens, UniProt O15382)
Assay: BCAT2 cell inhibition using engineered A549 cells (MUT KO, BCAT1 KO; 13C6-KMV formation by LC-MS/MS)
Format: cell-based
Set-up: expressed endogenous BCAT2; endogenous in cells; host or cells: A549 cells, MUT knockout and BCAT1 knockout
Quantity measured: IC50

| Molecule | IC50 |
| --- | --- |
| COc1ccc(Cl)cc1C(=O)N[C@H]1CCCC[C@@H](n2c(-c3ccccc3F)nc3cnc(-c4nc[nH]n4)cc32)[C@@H]1O | < 100 nM |
| CO[C@H]1C[C@H](NC(=O)c2cc(Cl)ccn2)C[C@H](n2c(-c3ccccc3F)nc3cnc(-c4nc[nH]n4)cc32)C1 | < 100 nM |
| CN1CC(NC(=O)c2cc(Cl)ccc2O)C[C@H](n2c(-c3ccccc3F)nc3cnc(-c4nc[nH]n4)cc32)C1 (stereo in doubt) | < 100 nM |
| CC(=O)N1C[C@H](N2Cc3ccc(F)cc3C2=O)C[C@H](n2c(-c3ccccc3F)nc3cnc(-n4nccn4)cc32)C1 | < 100 nM |
| CC(C)COc1ccc(Cl)cc1C(=O)N[C@H]1CCC[C@@H](n2c(-c3ccccc3C#N)nc3cnc(-c4nc[nH]n4)cc32)C1 | 100 to 500 nM |

Please respond with reported IC50 (system BCAT2 (Homo sapiens, UniProt O15382)) for `O=C(N[C@H]1CCC[C@@H](n2c(-c3ncccc3F)nc3cnc(-c4nc[nH]n4)cc32)C1)c1cc(Cl)ccn1` .
< 100 nM

Please respond with reported IC50 (system BCAT2 (Homo sapiens, UniProt O15382)) for `O=C1c2cc(F)ccc2CCN1[C@H]1CCC[C@@H](n2c(-c3ccccc3F)nc3cnc(-c4nc[nH]n4)cc32)C1` .
< 100 nM

Please respond with reported IC50 (system BCAT2 (Homo sapiens, UniProt O15382)) for `O=C1c2cc(F)ccc2CN1[C@H]1CCC[C@@H](n2c(-c3ncccc3F)nc3cnc(-c4nc[nH]n4)cc32)C1` .
< 100 nM

Please respond with reported IC50 (system BCAT2 (Homo sapiens, UniProt O15382)) for O=C(N[C@H]1CCC[C@@H](n2c(-c3ccccc3F)nc3cnc(-c4nc[nH]n4)cc32)C1)c1cc(Cl)ccc1OC1CCOC1 (stereo partly shown) .
< 100 nM

Please respond with reported IC50 (system BCAT2 (Homo sapiens, UniProt O15382)) for `COc1ccccc1C(=O)N[C@H]1CCC[C@@H](n2c(-c3ccccc3F)nc3cnc(-c4nc[nH]n4)cc32)C1` .
< 100 nM

* * *

Below, each entry is listed with its recorded IC50.
Biological target: BCAT2 (Homo sapiens, UniProt O15382)
Test: BCAT2 in vitro enzyme inhibition assay (hBCAT2, glutamate dehydrogenase/diaphorase/resazurin coupled fluorescence read)
Type: biochemical
Conditions: hBCAT2, 1 h preincubation at 25° C., one hour reaction; average where tested multiple times

Some solved cases for reference:
| Molecule | IC50 |
| --- | --- |
| O=C(N[C@H]1CCC[C@@H](n2c(-c3ccccc3F)nc3cnc(-c4nc[nH]n4)cc32)C1)c1cc(Cl)cnn1 [Example 17] | < 100 nM |
| O=C(N[C@H]1CCC[C@@H](n2c(-c3ccccc3F)nc3cnc(-c4nc[nH]n4)cc32)C1)c1cc(Cl)ccc1OC(CO)CO [Example 90] | < 100 nM |

Moving on to another molecule below.
Please give the documented IC50 of CN1C[C@@H](NC(=O)c2cc(F)ccc2F)C[C@@H](n2c(-c3ccccc3OCCO)nc3cnc(-n4nccn4)cc32)C1 [Example 154]
> 1000 nM
